test system: coculture of keratinocytes and melanocytes; experiment: Cytotoxicity on keratinocyte/melanocyte coculture, estimated by incorporation of leucine; type: cell-based
Hi there, I'd appreciate the recorded Cytotoxicity on coculture for every entry that follows.
Give just the numeric value; µM need not be written.

// field: Cytotoxicity on coculture; key: O=c1cc(CO)occ1O [Kojic acid, reference compound] ; value = 100

// field: Cytotoxicity on coculture; key: CCCCC(CC)CNC(=O)C(CCO)Cc1ccc(O)cc1O (centres unmarked) ; value = 50

---

test system: coculture of keratinocytes and melanocytes; assay: Inhibitory activity on melanin synthesis (constitutive melanogenesis), ratio of thiouracil to leucine incorporation; assay type: cell-based; conditions: concentration for which 50% of the synthesis of the melanin is inhibited; thiouracil/leucine incorporation ratio relative to 100% for the control
reported_property: IC50

// field: IC50; key: O=c1cc(CO)occ1O [Kojic acid, reference compound] ; value = > 500 µM

// field: IC50; key: CCCCC(CC)CNC(=O)C(CCO)Cc1ccc(O)cc1O (centres unmarked) ; value = 25.2 µM

// field: IC50; key: CCOC(=O)C(CC(C)C)NC(=O)C(CCO)Cc1ccc(O)cc1O (centres unmarked) ; value = 100 µM

// field: IC50; key: OC[C@H]1O[C@@H](Oc2ccc(O)cc2)[C@H](O)[C@@H](O)[C@@H]1O [Arbutin, reference compound] ; value = > 500 µM

// field: IC50; key: CCOC(=O)C(Cc1ccccc1)NC(=O)C(CCO)Cc1ccc(O)cc1O (centres unmarked) ; value = 0.15 µM

---

test system: coculture of keratinocytes and melanocytes; test: Cytotoxicity on keratinocyte/melanocyte coculture, estimated by incorporation of leucine; type: cell-based
reported_property: Cytotoxicity on coculture

CCOC(=O)C(Cc1ccccc1)NC(=O)C(CCO)Cc1ccc(O)cc1O (stereo not drawn) = Non-cytotoxic
CCOC(=O)C(CC(C)C)NC(=O)C(CCO)Cc1ccc(O)cc1O (stereo not drawn) = Non-cytotoxic
OC[C@H]1O[C@@H](Oc2ccc(O)cc2)[C@H](O)[C@@H](O)[C@@H]1O [Arbutin, reference compound] = Non-cytotoxic
